Data origin: patent US20240425587A1

molecular target: T1, human PILRB, ectopically expressed on 293 cells (human, UniProt Q9UKJ0 20-227); assay: flow cytometry, 293 cells expressing target
T1 construct: also called hB
T1 sequence (Q9UKJ0 20-227): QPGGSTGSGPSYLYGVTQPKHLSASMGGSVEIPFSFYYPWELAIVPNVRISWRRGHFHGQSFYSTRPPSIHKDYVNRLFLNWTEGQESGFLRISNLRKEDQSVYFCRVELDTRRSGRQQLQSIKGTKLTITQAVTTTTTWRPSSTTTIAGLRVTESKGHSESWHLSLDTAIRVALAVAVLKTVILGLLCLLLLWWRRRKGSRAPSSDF

Binder	EC50
A12 (antibody, V domains shown, phage campaign) VH: QVQLVQSGAEVKKPGASVKVSCKASGYNFNDYYIHWVRQAPGQGLEWMGWISAYNGNTNYAQKLQGRVTMTRDTSTSTVYMELSSLRSEDTAVYYCARDGWYCSSSSCYTGSDYWGQGTLVTVSS VL: DIQMTQSPSSLSASVGDRVTITCRASQSISNYLNWYQQKPGKAPKLLIYGASTLHSGVPSRFSGSGSGTDFTLTISSLQPEDFATYYCQQSYSTPFTFGPGTKVDIK	8.6 µg/mL
